The origin of these recorded values is paper PMC12660843.

target: 3-pTza peptide (Biotin-AminocaproicAcid-A.G.A.G.3-pTza.A.G.A.G); assay: BLI; Octet RED96e; biotinylated peptides captured on streptavidin biosensors at 20 nM; Fab in solution, 20-200 nM; 1x HBS-T, 1% BSA
Below, each of the binders is paired with its reported pKd value.
Kindly note that pKd refers to -log10 of the concentration in mol/L and answer with the value alone.

| binder | numeric.result |
| --- | --- |
| hSC44 Fab (Fab, V domains shown) VH: EVQLVESGGGLVQPGGSLRLSCTASGFSIDSYGFSWVRQAPGKGLEHIGYLTAGGRAFYASWAKSRSTITRNTNENTVTLKMNSLRAEDTAVYYCAKLGSGNPVAIWGQGTLVTVSS VL: DIQMTQSPSSLSASVGDRVTITCRASQSVWRNKNVAWYQQKPGKAPKRLIYAIASLYSGVPSRFSGSGSGTDFTLTISSLQPEDFATYYCVGHYGSENDAYYAFGQGTKVEIK | 8.79 |
| hSC44.20.N32Y^L Fab (Fab, V domains shown) VH: EVQLVESGGGLVQPGGSLRLSCTASGFSIDSYGFSWVRQAPGKGLEHIGYLTAGGRAFYASWAKSRSTITRNTNENTVTLKMNSLRAEDTAVYYCAKLGTGSRFAIWGQGTLVTVSS VL: DIQMTQSPSSLSASVGDRVTITCRASQSVWRNKYVAWYQQKPGKAPKRLIYAIASLYSGVPSRFSGSGSGTDFTLTISSLQPEDFATYYCVGHYGSENDAYYAFGQGTKVEIK | 9.08 |
| hSC44.20 Fab (Fab, V domains shown) VH: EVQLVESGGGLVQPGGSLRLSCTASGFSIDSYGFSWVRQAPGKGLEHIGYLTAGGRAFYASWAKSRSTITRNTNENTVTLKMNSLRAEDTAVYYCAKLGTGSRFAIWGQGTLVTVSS VL: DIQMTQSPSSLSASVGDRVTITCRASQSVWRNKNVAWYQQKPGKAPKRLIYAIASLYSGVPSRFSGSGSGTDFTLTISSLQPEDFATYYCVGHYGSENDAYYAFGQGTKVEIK | 9.38 |

// switching to the query binder
What does the data say about its pKd? Entry: hSC44.20.N32F^L Fab (Fab, V domains shown) VH: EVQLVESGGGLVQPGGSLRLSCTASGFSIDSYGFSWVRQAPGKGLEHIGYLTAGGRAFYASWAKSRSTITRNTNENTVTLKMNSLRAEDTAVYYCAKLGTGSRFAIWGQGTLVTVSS VL: DIQMTQSPSSLSASVGDRVTITCRASQSVWRNKFVAWYQQKPGKAPKRLIYAIASLYSGVPSRFSGSGSGTDFTLTISSLQPEDFATYYCVGHYGSENDAYYAFGQGTKVEIK
9.05
